- protocolDetails: physchem
- protocolConditions: buffer, pH 7.4
- Description: log P values determined at pH 7.4
Reported logD values follow for various molecules

# molecule, logD
measured = [
    ("CN1CCN2c3ccccc3Cc3ccccc3C2C1 (stereo not drawn)", 4.08),
    ("CN(C)CCCN1c2ccccc2CCc2ccc(Cl)cc21", 3.32),
    ("CNCCC=C1c2ccccc2CCc2ccccc21", 2.02),
]

====

Reported logP values follow for various compounds
- protocolDetails: physchem
- protocolConditions: octanol/water
- Description: Partition coefficient (logP)
reportedProperty: logP

# compound, observedValue
measured = [
    ("CC(CN(C)C)CN1c2ccccc2CCc2ccccc21 (stereo not given)", 4.73),
    ("CN(C)CCC=C1c2ccccc2CCc2ccccc21", 4.64),
    ("CN(C)CCC=C1c2ccccc2C(C)(C)c2ccccc21", 5.12),
    ("CNCCC=C1c2ccccc2CCc2ccccc21", 4.32),
    ("CN(C)CCC=C1c2ccccc2CSc2ccccc21 [DOTHIEPIN]", 4.52),
    ("CN(C)CC/C=C1/c2ccccc2COc2ccccc21 [DOXEPIN]", 3.88),
    ("Clc1ccc2c(c1)C(N1CCNCC1)=Nc1ccccc1O2", 3.89),
    ("c1ccc2c(c1)CCc1ccccc1N2C1CN2CCC1CC2 (stereo not given)", 4.94),
    ("CNCCCC12CCC(c3ccccc31)c1ccccc12", 4.22),
    ("CN1CCN2c3ccccc3Cc3ccccc3C2C1 (stereo not given)", 4.26),
]

The measurements presented in this section are drawn from ChEMBL document CHEMBL1132276.
